Measured IC50 by item
- target-under-test: KRAS G12V (Homo sapiens, UniProt P01116, G12V)
- Sequence (P01116 1-188 isoform P01116-2 G12V): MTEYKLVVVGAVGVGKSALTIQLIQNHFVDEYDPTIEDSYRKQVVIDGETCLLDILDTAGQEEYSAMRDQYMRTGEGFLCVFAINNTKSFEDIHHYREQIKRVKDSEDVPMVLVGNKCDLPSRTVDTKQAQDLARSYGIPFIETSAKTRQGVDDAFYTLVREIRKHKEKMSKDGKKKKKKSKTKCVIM
- assay-summary: HTRF KRAS-SOS1 interaction assay, KRAS G12V
- experimental-conditions: binned ≤2 μM / >2 μM, read-out: Inhibition of KRAS G12V (IC50)
- Description: This assay can be also used to assess a selective inhibition or reduction of signaling output of a mutant Ras protein relative to a wildtype, or relative to a different mutant Ras protein. For example, the equilibrium interaction of wildtype KRAS or K-Ras mutant (e.g., wildtype or a mutant thereof) with SOS1 (e.g., hSOS1) can be assessed as a proxy or an indication for the ability of a subject compound to bind and inhibit Ras protein. […]

compound	readout-label	recorded-result
C[C@H](c1cccnc1N)N1CCOc2c(C(F)(F)F)c(-c3ccc(F)c4sc(N)c(C#N)c34)c(F)c3nc(OCC4(CN5CC[C@@H](F)C5)CC4)nc1c23 [Compound 698]	IC50	≤ 2 µM

For the compound N#Cc1c(N)sc2c(F)ccc(-c3c(Cl)c4c5c(nc(OC[C@@]67CCCN6C[C@H](F)C7)nc5c3F)N([C@@H](c3cccnc3N)C(F)(F)F)CCO4)c12 [Compound 833] , what IC50 is on record?
≤ 2 µM

Which IC50 reading was recorded for the compound CC[S+]([O-])[C@@H]1C[C@]2(COc3nc4c5c(c(Cl)c(-c6ccc(F)c7sc(N)c(C#N)c67)c(F)c5n3)OCCN4[C@H](C)c3cccnc3N)CCC[N+]2([O-])C1 (mixture of isomers) [Compound 626] ?
≤ 2 µM

Which IC50 is listed for N#Cc1c(N)sc2c(F)ccc(-c3c(C(F)(F)F)c4c5c(nc(OC[C@@]67CCCN6C[C@H](F)C7)nc5c3F)N([C@H](CC3CCOCC3)c3cc(F)cnc3N)CCO4)c12 [Compound 634] ?
≤ 2 µM

# input compound: N#Cc1c(N)sc2c(F)ccc(-c3c(C(F)(F)F)c4c5c(nc(OC[C@@]67CCCN6C[C@H](F)C7)nc5c3F)N([C@H](CC3CC3)c3cccnc3N)CCO4)c12 (single isomer, unassigned) [Compound 753] ; wanted: its IC50
≤ 2 µM

* * *

- target-under-test: KRAS G12S (Homo sapiens, UniProt P01116, G12S)
- Sequence (P01116 1-188 isoform P01116-2 G12S): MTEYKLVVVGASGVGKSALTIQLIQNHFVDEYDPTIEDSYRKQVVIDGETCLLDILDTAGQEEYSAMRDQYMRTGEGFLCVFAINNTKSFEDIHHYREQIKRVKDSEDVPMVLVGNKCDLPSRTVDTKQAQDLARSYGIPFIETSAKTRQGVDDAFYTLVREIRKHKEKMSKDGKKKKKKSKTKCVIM
- assay-summary: HTRF KRAS-SOS1 interaction assay, KRAS G12S
- experimental-conditions: binned ≤2 μM / >2 μM, read-out: Inhibition of KRAS G12S (IC50)
- Excerpt: This assay can be also used to assess a selective inhibition or reduction of signaling output of a mutant Ras protein relative to a wildtype, or relative to a different mutant Ras protein. For example, the equilibrium interaction of wildtype KRAS or K-Ras mutant (e.g., wildtype or a mutant thereof) with SOS1 (e.g., hSOS1) can be assessed as a proxy or an indication for the ability of a subject compound to bind and inhibit Ras protein. […]
Reported IC50 values for a set of molecules

molecule	recorded-result
C=C1CN2CC(=C)CC2(COc2nc3c4c(c(C(F)(F)F)c(-c5ccc(F)c6sc(N)c(C#N)c56)c(F)c4n2)OCCN3[C@H](C)c2cncnc2N)C1 (single isomer, unassigned)	≤ 2000 nM
C[C@H](c1cccnc1N)N1CCOc2c(Cl)c(-c3cccc4sc(N)c(C#N)c34)c(F)c3nc(OC[C@@H]4CCCN4C)nc1c23	≤ 2000 nM

Please examine the following record next.
Returns the measured IC50 for the input molecule. Input: N#Cc1c(N)sc2c(F)ccc(-c3c(C(F)(F)F)c4c5c(nc(OC[C@@]67CCCN6CC(=C(F)F)C7)nc5c3F)N([C@H](CC3CCOCC3)c3cccnc3N)CCO4)c12
≤ 2000 nM

* * *

pIC50 values by entry
- target-under-test: KRAS G12V (Homo sapiens, UniProt P01116, G12V)
- assay-summary: HTRF KRAS-SOS1 interaction assay, KRAS G12V
- experimental-conditions: binned ≤2 μM / >2 μM, read-out: Inhibition of KRAS G12V (IC50)
pIC50: −log10 of the molar value.

Some compounds with known pIC50 results, for comparison:
compound	recorded-result
C=CC[C@H](c1cccnc1N)N1CCOc2c(C(F)(F)F)c(-c3ccc(F)c4sc(N)c(C#N)c34)c(F)c3nc(OC[C@@]45CCCN4C[C@H](F)C5)nc1c23 (single isomer, unassigned) [Compound 734]	< 5.70
Cc1ccnc(N)c1[C@@H](C)N1CCOc2c(C(F)(F)F)c(-c3ccc(F)c4sc(N)c(C#N)c34)c(F)c3nc(OC[C@@]45CCCN4C[C@H](F)C5)nc1c23 (single isomer, unassigned)	≥ 5.70
CC(=O)c1c(F)ccc2cc(O)cc(-c3nc4c5c(nc(OC[C@@]67CCCN6C[C@H](F)C7)nc5c3F)N(C(C)c3cccnc3N)CCO4)c12 (mixture of isomers)	≥ 5.70
C[C@H](c1cccnc1N)N1CCOc2c(C(F)(F)F)c(-c3cccc4sc(N)c(C#N)c34)c(F)c3nc(OC[C@@]45CCCN4C[C@H](F)C5)nc1c23 (single isomer, unassigned)	≥ 5.70

Proceeding to the next compound to report its pIC50.
Request - read-out pIC50 | tested on KRAS G12V (Homo sapiens, UniProt P01116, G12V) | compound N#Cc1c(N)sc2c(F)ccc(-c3c(C(F)(F)F)c4c5c(nc(OCC6(CN7CCC(=CF)CC7)CC6)nc5c3F)N([C@H](CCC3CCOCC3)c3cccnc3N)CCO4)c12
≥ 5.70

* * *

- target-under-test: KRAS G12D (Homo sapiens, UniProt P01116, G12D)
- Sequence (P01116 1-188 isoform P01116-2 G12D): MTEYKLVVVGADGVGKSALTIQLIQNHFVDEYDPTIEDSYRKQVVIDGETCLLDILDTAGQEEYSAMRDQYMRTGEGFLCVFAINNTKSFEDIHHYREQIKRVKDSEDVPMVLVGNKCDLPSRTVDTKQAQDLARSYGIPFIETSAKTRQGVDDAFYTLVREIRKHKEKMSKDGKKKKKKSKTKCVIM
- assay-summary: HTRF KRAS-SOS1 interaction assay, KRAS G12D
- experimental-conditions: binned ≤2 μM / >2 μM, read-out: Inhibition of KRAS G12D (IC50)
readout-label: IC50

Worked set:
molecule	IC50
N#Cc1c(N)sc2c(F)ccc(-c3c(C(F)(F)F)c4c5c(nc(OC[C@@]67CCCN6C[C@@]6(CC6(F)F)C7)nc5c3F)N([C@H](CCC3CCOCC3)c3cccnc3N)CCO4)c12	≤ 2000 nM
CN1CCC[C@H]1COc1nc2c3c(c(Cl)c(-c4ccc(F)c5sc(N)c(C#N)c45)c(F)c3n1)OCCN2C(c1cccnc1N)C(F)F (mixture of isomers)	≤ 2000 nM
C[C@H](c1cccnc1N)N1CCOc2c(C(F)(F)F)c(-c3ccc(F)c4sc(N)c(C#N)c34)c(F)c3nc(OC[C@@]45CCCN4CC(C#N)C5)nc1c23 (single isomer, unassigned) [Compound 754]	≤ 2000 nM
C#Cc1c(F)ccc2cc(O)cc(-c3nc4c5c(nc(O[C@@H](C)[C@@H]6CCCN6C)nc5c3F)N([C@H](C)c3cccnc3N)CCO4)c12 (single isomer, unassigned)	≤ 2000 nM

Then there is this molecule:
Can you look up the measured IC50 of C=C[C@H](c1cccnc1N)N1CCOc2c(Cl)c(-c3ccc(F)c4sc(N)c(C#N)c34)c(F)c3nc(OC[C@@]45CCCN4C[C@H](F)C5)nc1c23 for me?
≤ 2000 nM

* * *

- target-under-test: KRAS WT (Homo sapiens, UniProt P01116)
- Construct: made in house; host or cells: E. coli, e.g. BL21 (DE3)
- Sequence (P01116 1-188 isoform P01116-2): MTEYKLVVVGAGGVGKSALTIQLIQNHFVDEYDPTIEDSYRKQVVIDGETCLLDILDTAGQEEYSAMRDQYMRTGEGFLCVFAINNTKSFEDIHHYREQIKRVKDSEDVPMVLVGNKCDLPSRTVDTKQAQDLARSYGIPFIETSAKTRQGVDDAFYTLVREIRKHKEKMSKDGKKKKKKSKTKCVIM
- assay-summary: HTRF KRAS-SOS1 interaction assay, wildtype KRAS
- Type: biochemical
- experimental-conditions: binned ≤2 μM / >2 μM, read-out: Inhibition of KRAS WT (IC50)
readout-label: IC50

compound	recorded-result
N#Cc1c(N)sc2c(F)ccc(-c3c(C(F)(F)F)c4c5c(nc(OC[C@@]67CCCN6C[C@H](F)C7)nc5c3F)N([C@H](CCC3CC(F)(F)C3)c3cccnc3N)CCO4)c12 (single isomer, unassigned) [Compound 689]	≤ 2000 nM
C=C1CN2CC(=C)CC2(COc2nc3c4c(c(C(F)(F)F)c(-c5ccc(F)c6sc(N)c(C#N)c56)c(F)c4n2)OCCN3[C@H](C)c2cccnc2N)C1 (single isomer, unassigned) [Compound 775]	≤ 2000 nM
C[C@H](c1cc(Cl)cnc1N)N1CCOc2c(C(F)(F)F)c(-c3ccc(F)c4sc(N)c(C#N)c34)c(F)c3nc(OC[C@@]45CCCN4C[C@@]4(CC4(F)F)C5)nc1c23 [Compound 713]	≤ 2000 nM
N#Cc1c(N)sc2c(F)ccc(-c3c(Cl)c4c5c(nc(OC[C@@]67CCCN6C[C@H](F)C7)nc5c3F)N(C(C=C(F)F)c3cccnc3N)CCO4)c12 (single isomer, unassigned) [Compound 655]	≤ 2000 nM
N#Cc1c(N)sc2c(F)ccc(-c3c(C(F)(F)F)c4c5c(nc(OC[C@@]67CCCN6C[C@@]6(CC6(F)F)C7)nc5c3F)N([C@H](CCC3CCOCC3)c3cccnc3N)CCO4)c12 [Compound 650]	≤ 2000 nM

Request the reported IC50 associated with N#Cc1c(N)sc2c(F)ccc(-c3c(C(F)(F)F)c4c5c(nc(OC[C@@]67CCCN6C[C@@]6(CC6(F)F)C7)nc5c3F)N([C@H](CC3CCOCC3)c3cccnc3N)CCO4)c12 [Compound 855]
≤ 2000 nM

Need IC50 of C[C@H](c1cc(F)cnc1N)N1CCOc2c(C(F)(F)F)c(-c3ccc(F)c4sc(N)c(C#N)c34)c(F)c3nc(OC[C@@]45CCCN4C[C@H](F)C5)nc1c23 (single isomer, unassigned) [Compound 864] , thanks.
≤ 2000 nM

Look up IC50 for this compound: C[C@H](c1cccnc1N)N1CCOc2c(Cl)c(-c3cccc4sc(N)c(C#N)c34)c(F)c3nc(OC[C@@]45CCCN4C[C@H](F)C5)nc1c23 (single isomer, unassigned) [Compound 668]
≤ 2000 nM

What IC50 value was documented for this compound, C[C@H](c1cccnc1N)N1CCOc2c(C3CC3)c(-c3ccc(F)c4sc(N)c(C#N)c34)c(F)c3nc(OC[C@@]45CCCN4C[C@H](F)C5)nc1c23 (single isomer, unassigned) [Compound 727] ?
≤ 2000 nM

Quick one: IC50 of C[C@H](c1cccnc1N)N1CCOc2c(Cl)c(-c3cccc4sc(N)c(C#N)c34)c(F)c3nc(OC[C@@H]4CCCN4C)nc1c23 [Compound 612] ?
≤ 2000 nM
